Test system: SARS-CoV-2 (wild-type strain)
Assay: microbe, parasite or virus in culture
Assay type: cell-based
Details: Severe acute respiratory syndrome coronavirus 2, Calu-3
Assay readout: pEC50
Interpret pEC50 as the negative base-10 log of the concentration measured in mol/L.

Inquiry: Return reported pEC50; argument: CNC(=O)c1cc(Br)cc([N+](=O)[O-])c1N1CC[C@@]2(CN(C(=O)c3cncc4cc(O)ccc34)C[C@@H]2c2ccccc2)C1
Reply text: 7.10

###

Below are IC50 values measured for SARS-CoV-2 3CLpro (Severe acute respiratory syndrome coronavirus 2).
Provide the reading as a plain figure in nM.

Take a look at these entries with their results.
# Compound, Measurement units, Measured result
data = [
    ("CNC(=O)c1cc(Br)cc(C#N)c1N[C@@H]1CCCC[C@@H]1NC(=O)c1cncc2ccccc12 [WU-08]", "nM", 467),
    ("CNC(=O)c1cc(Br)cc([N+](=O)[O-])c1N1CC[C@@]2(CN(C(=O)c3cncc4cc(O)ccc34)C[C@@H]2c2ccccc2)C1 [WU-02]", "nM", 71),
    ("CNC(=O)c1cc(Br)cc([N+](=O)[O-])c1NC(C(C)C)C1CN(C(=O)c2cncc3cc(O)ccc23)C1 (stereo not drawn) [WU-05]", "nM", 122),
    ("CNC(=O)c1cc(Br)cc([N+](=O)[O-])c1N[C@@H]1CCCC[C@@H]1NC(=O)c1cncc2cccc(O)c12 [WU-10]", "nM", 135),
    ("CCC(CCNc1c(C(=O)NC)cc(Br)cc1[N+](=O)[O-])NC(=O)c1cncc2cccc(O)c12 (stereo not drawn) [WU-01]", "nM", 648),
]

Inquiry: // fetch SARS-CoV-2 3CLpro (Severe acute respiratory syndrome coronavirus 2) IC50 for O=C(O)c1cc(Br)cc([N+](=O)[O-])c1N[C@@H]1CCCC[C@@H]1NC(=O)c1cncc2ccccc12 [WU-12]
Reply text: 6110

Inquiry: API: value(readout= IC50, system= SARS-CoV-2 3CLpro (Severe acute respiratory syndrome coronavirus 2), query= CNC(=O)c1cc(Br)cc(C(F)(F)F)c1N[C@@H]1CCCC[C@@H]1NC(=O)c1cncc2ccccc12 [WU-07] )
Reply text: 239

Inquiry: Missing value: IC50, SARS-CoV-2 3CLpro (Severe acute respiratory syndrome coronavirus 2), entry CNC(=O)c1cc(Br)cc([N+](=O)[O-])c1N[C@@H]1CCCC[C@@H]1NC(=O)c1cncc2cc(O)ccc12 [WU-09] . Fill in?
Reply text: 221

Inquiry: Any idea what IC50 came out for COC(=O)c1cc(Br)cc([N+](=O)[O-])c1N[C@@H]1CCCC[C@@H]1NC(=O)c1cncc2ccccc12 [WU-11] on SARS-CoV-2 3CLpro (Severe acute respiratory syndrome coronavirus 2)?
Reply text: 849

###

Experiment: in vitro
Conditions: human
Assay readout: CC50

Inquiry: Query: CC50; subject: CNC(=O)c1cc(Br)cc([N+](=O)[O-])c1N1CC[C@@]2(CN(C(=O)c3cncc4cc(O)ccc34)C[C@@H]2c2ccccc2)C1
Reply text: > 20 µM
